I'd be grateful if you could share measured Population Normal (%) for these entries.
Tested on: HEK-293T
Experiment summary: Multiplex assay against HEK293T
Format: toxicity, cell-based
Stated conditions: human, 24 h, 10 µM, compound concentration 10 uM, replicate 2
Answer with a number only, understood to be in %.

Problem: Given COc1cc(NC(=O)CCN2CCC(OC(=O)Nc3ccccc3-c3ccccc3)CC2)c(Cl)cc1CNC[C@H](O)c1ccc(O)c2[nH]c(=O)ccc12 [BATEFENTEROL] , state its recorded Population Normal (%).
Solution: 93

Problem: Given Cc1nc2ccc(Oc3ccc(F)cc3)cc2c(=O)n1C[C@H]1CCCN(C(C)C)C1.Cl , state its recorded Population Normal (%).
Solution: 76

Problem: Given CNC[C@H](O)c1ccc(O)c(O)c1 [EPINEPHRINE] , state its recorded Population Normal (%).
Solution: 60

Problem: Given CN1CCN2c3ncccc3Cc3ccccc3C2C1 (stereo not given) [MIRTAZAPINE] , state its recorded Population Normal (%).
Solution: 94

Problem: Given COc1ccccc1N1CCN(CCCCNC(=O)c2ccc3ccccc3c2)CC1.Cl , state its recorded Population Normal (%).
Solution: 82

Problem: Given CC(=O)O[C@H]1C(=O)[C@@]2(C)[C@H]([C@H](OC(=O)c3ccccc3)[C@]3(O)C[C@H](OC(=O)[C@H](O)[C@@H](NC(=O)c4ccccc4)c4ccccc4)C(C)=C1C3(C)C)[C@]1(OC(C)=O)CO[C@@H]1C[C@@H]2O [PACLITAXEL] , state its recorded Population Normal (%).
Solution: 84

Problem: Given O=C(NCCO)c1cccc(-c2cc(Nc3ccc(OC(F)(F)F)cc3)ncn2)c1 , state its recorded Population Normal (%).
Solution: 85

Problem: Given O=C(NCC(=O)N1CC[C@H](N[C@H]2CC[C@@](O)(c3ccc(-c4ncccn4)cn3)CC2)C1)c1cccc(C(F)(F)F)c1 [PF-4136309] , state its recorded Population Normal (%).
Solution: 94

Problem: Given CC[C@H]1OC(=O)[C@H](C)[C@@H](O[C@H]2C[C@@](C)(OC)[C@@H](O)[C@H](C)O2)[C@H](C)[C@@H](O[C@@H]2O[C@H](C)C[C@H](N(C)C)[C@H]2O)[C@@]2(C)CC(C)=C(O2)[C@H](C)[C@@H](O)[C@]1(C)O , state its recorded Population Normal (%).
Solution: 89

Problem: Given CCCn1c(=O)c2[nH]c(C3CCCC3)nc2n(CCC)c1=O , state its recorded Population Normal (%).
Solution: 84

Problem: Given COc1ccc2c(c1)C(C(=O)N(Cc1ccc(N(C)C)cc1)c1ccc(C(C)C)cc1)CCC2.Cl (stereo not given) , state its recorded Population Normal (%).
Solution: 93

Problem: Given CN1CCN(c2nc3cc(C(F)(F)F)ccc3n3cccc23)CC1.O=C(O)/C=C\C(=O)O.O=C(O)/C=C\C(=O)O , state its recorded Population Normal (%).
Solution: 92

Problem: Given C[C@H](NC(=O)c1c(C(F)F)nn(C)c1Oc1cccc(C(F)(F)F)c1)c1ccc(C(=O)O)cc1 [PALUPIPRANT] , state its recorded Population Normal (%).
Solution: 92

Problem: Given CCNC1(C(N)=O)CCN(c2ncnc3c2nc(-c2ccccc2Cl)n3-c2ccc(Cl)cc2)CC1 [OTENABANT] , state its recorded Population Normal (%).
Solution: 86

Problem: Given Cc1ccc(C(C)(O)c2nc3ccccc3s2)c(C)c1 (stereo not given) , state its recorded Population Normal (%).
Solution: 93
